Data credit: patent US8921397B2

- TARGET_SYSTEM: human D2 receptor (Homo sapiens (Human))
- Sequence (P14416 whole entry): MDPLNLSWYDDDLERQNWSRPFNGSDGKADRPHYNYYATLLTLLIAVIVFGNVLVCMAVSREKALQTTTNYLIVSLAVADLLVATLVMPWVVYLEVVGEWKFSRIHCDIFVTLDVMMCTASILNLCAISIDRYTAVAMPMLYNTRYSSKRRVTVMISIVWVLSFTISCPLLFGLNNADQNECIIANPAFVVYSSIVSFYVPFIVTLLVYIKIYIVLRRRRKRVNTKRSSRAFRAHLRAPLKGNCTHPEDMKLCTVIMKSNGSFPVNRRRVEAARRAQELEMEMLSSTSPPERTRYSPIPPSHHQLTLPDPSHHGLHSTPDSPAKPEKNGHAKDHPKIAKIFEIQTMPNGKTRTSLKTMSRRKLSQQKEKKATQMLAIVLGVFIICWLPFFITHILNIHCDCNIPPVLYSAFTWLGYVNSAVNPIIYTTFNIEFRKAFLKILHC
- TEST_METHOD_NOTES: Radioligand binding ([3H]-spiperone) to human D2 receptor, HEK293 EBNA membranes
- CONDITIONS_USED: HEK293 EBNA cells expressing human D2 receptor
Exercise: state measured Ki for each of the molecules provided.
Give bare numbers, in nM.

Worked examples, 3 molecules total:
{"columns": ["MOLECULE", "TARGET_SYSTEM", "Ki [nM]"],
 "data": [
  ["CC(C)(C)c1ccc(S(=O)(=O)N[C@H]2CC[C@H](CCN3CCC(c4coc5ccccc45)CC3)CC2)cc1 [Example 88]", "human D2 receptor (Homo sapiens (Human))", 70],
  ["CC(C)=CC(=O)N[C@H]1CC[C@H](CCN2CCC(c3coc4ccccc34)CC2)CC1 [Example 53]", "human D2 receptor (Homo sapiens (Human))", 18],
  ["O=C(N[C@H]1CC[C@H](CCN2CCC(c3coc4ccccc34)CC2)CC1)C1CCC(C(F)(F)F)CC1 (stereo partly shown) [Example 79]", "human D2 receptor (Homo sapiens (Human))", 73]
]}

Q: Specify Ki for O=C(N[C@H]1CC[C@H](CCN2CCC(c3coc4ccccc34)CC2)CC1)c1ccc(Cl)cc1Cl [Example 87] and stop.
Result: 38.2
